target or test system: UniProt:P41145
Sequence (P41145 whole entry, looked up): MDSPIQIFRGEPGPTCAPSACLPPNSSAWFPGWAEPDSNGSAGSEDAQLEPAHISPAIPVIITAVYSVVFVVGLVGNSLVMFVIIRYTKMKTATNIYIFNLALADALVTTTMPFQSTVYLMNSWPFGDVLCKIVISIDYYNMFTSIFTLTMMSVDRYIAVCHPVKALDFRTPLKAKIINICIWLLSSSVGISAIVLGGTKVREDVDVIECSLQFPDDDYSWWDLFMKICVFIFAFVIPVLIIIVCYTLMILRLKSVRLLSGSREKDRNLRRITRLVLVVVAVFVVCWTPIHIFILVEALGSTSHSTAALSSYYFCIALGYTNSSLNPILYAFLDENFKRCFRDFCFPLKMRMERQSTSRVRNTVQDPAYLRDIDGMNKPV
measurement notes: kappa opioid receptor blockers, retest – cell-based, fluorescence, confirmation (AID 652082)
run conditions: OPRK1 cell line, fluorescence antagonist read-out; at 9 µM
Calls of active or inactive are those of the source. How the calls were made is not given here.
In this exercise, the only acceptable responses are true (1) for active, false (0) for inactive

For orientation, consider the following solved cases.
O=[N+]([O-])c1ccc(C2=NN(c3ccccc3)C(c3ccco3)C2)cc1 (stereo not given)
true (1)
Clc1ccc2nc3c(nc2c1)Nc1ccccc1S3
true (1)
Oc1c(Cl)cc(Cl)cc1C1Nc2cc(Cl)c(C(F)(F)F)cc2N1 (stereo not given)
true (1)
COC(=O)/C=C1\SC(=Nc2ccc(Cl)cc2)N(c2ccc(Cl)cc2)C1=O
true (1)
CCOC(=O)C1CCN(Cc2cccc(NC(=O)c3cccs3)c2)CC1
false (0)

Please state the recorded outcome for this compound: O=C(O)C(F)(F)C(F)(F)C(=O)NCc1cccc(Cl)c1 false (0)

Please state the recorded outcome for this compound: c1ccc(-c2cc3ncnc(NCc4ccc5c(c4)OCO5)c3s2)cc1 false (0)

Please state the recorded outcome for this compound: O=C(Nc1ccc(F)c(Cl)c1)c1cc(Br)ccc1O true (1)

Please state the recorded outcome for this compound: CC(=O)N1CCC(C(=O)O/N=C(\N)c2ccc(Cl)cc2)CC1 false (0)

Please state the recorded outcome for this compound: CCOC(=O)c1cc(C(=O)OC)c(C)nc1N1CCC(NC2CCCCC2O)CC1 (stereo not given) true (1)
